Listed here are variants together with their documented protein stability index.
B1: DLC1 (parent)
chain: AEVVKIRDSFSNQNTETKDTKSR

- Variants of: B1
- TEST DETAILS: protein stability index of a GFP-peptide fusion (GPS, HEK-293T) (PSI 1-6); higher = more stable;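 note: lentivirally expressed fusions sorted by FACS into six bins by GFP to DsRed ratio, PSI derived from sequencing read proportions per bin multiplied by bin number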
- COND: c terminus: native
Reply with just the number.

Kindly note the recorded protein stability index for `F10N` , which is 3.64

Measured protein stability index of `T17F` : 2.54

Measured protein stability index, `K5M` : 2.09

Quick note, protein stability index for `K21Y` landed at 3.57

Documented protein stability index of `K5T` : 2.88

variant `E2K` , protein stability index observed: 1.81

Short answer for `R23C` : protein stability index was 4.75

Record `I6A` , field protein stability index: 2.47

Quick note, protein stability index for `S22D` landed at 3.23

Summary for this variant, `A1Y` : protein stability index is 1.79

meta.source: the supplement of paper PMC10567573
